// data source = patent US20130129746A1

# TARGET OR TEST SYSTEM: T1, Human Serum Albumin (human, UniProt P02768 25-609)
# T1 construct: mature; purified protein on CM5 chips for BIAcore; also called HSA; human SA
# PROCEDURE TEXT: BIAcore SPR
ENDPOINT: kon (M⁻¹ s⁻¹)
One number for each entry, in M⁻¹ s⁻¹.

Please review the entries below; each comes with its answer.
Entry DOM7h-11-87 (other, Vk dAb; also called DOM7h-11-67 W108R/N106I) VL: DIQMTQSPSSLSASVGDRVTITCRASRPIGTMLSWYQQKPGKAPKLLILAFSRLQSGVPSRFSGSGSGTDFTLTISSLQPEDFATYYCAQAGTHHTTFGQGTKVEIKR , kon reported as 1.17e+06

Entry DOM7h-11-88 (other, Vk dAb; also called DOM7h-11-67 W108R) VL: DIQMTQSPSSLSASVGDRVTITCRASRPIGTMLSWYQQKPGKAPKLLILAFSRLQSGVPSRFSGSGSGTDFTLTISSLQPEDFATYYCAQAGTHHTTFGQGTKVENKR , kon reported as 1.14e+06

Entry DOM7h-11-86 (other, Vk dAb; also called DOM7h-11-65 W108R/N106I) VL: DIQMTQSPSSLSASVGDRVTITCRASRPIGTMLSWYQQKPGKAPKLLILAFSRLQSGVPSRFSGSGSGTDFTLTISSLQPEDVATYYCAQAGTHPTTFGQGTKVEIKR , kon reported as 790000

More entries:
Entry DOM7h-11-90 (other, Vk dAb; also called DOM7h-11-57 W108R/N106I) VL: DIQMTQSPSSLSASVGDRVTITCRASRPIGTMLSWYQQKPGKAPKLLILAFSRLQSGVPSRFSGSGSGTDFTLTISNLQPEDFATYYCAQAGTHPTTFGQGTKVEIKR , kon reported as 469000
